Method: approximate acute toxicity (method of MILLER and TAINTER)
Applied conditions: in vivo, po; 1000 mg/kg p.o.; read-out: lethality
Reported endpoint: mortality (%)
Give your result in % as a bare value.

Ask: Give mortality for the following compound: COc1cc(/C=C/C(=O)N2CCN(CC(=O)O)CC2)cc(OC)c1OC
Result: 0

----------
Method: approximate acute toxicity (method of MILLER and TAINTER)
Applied conditions: in vivo, iv
Reported endpoint: LD50 (mg/kg)
Give your result in mg/kg as a bare value.

Smiles text | Val
COc1cc(/C=C/C(=O)N2CCN(CC(=O)NC(C)C)CC2)cc(OC)c1OC | 475
COc1ccc(CCN(C)C(=O)CN2CCN(C(=O)/C=C/c3cc(OC)c(OC)c(OC)c3)CC2)cc1OC | 200

Ask: Give LD50 for the following compound: COc1cc(/C=C/C(=O)N2CCN(CC(=O)N3CCCCCCC3)CC2)cc(OC)c1OC
Result: 225

----------
Method: approximate acute toxicity (method of MILLER and TAINTER)
Applied conditions: in vivo, po; 2000 mg/kg p.o.; read-out: lethality
As shown below, each of these compounds has a reported mortality value.
Give your result in % as a bare value.

Compound | mortality / %
COc1cc(CCC(=O)N2CCN(CC(=O)NC(C)C)CC2)cc(OC)c1OC [compound 70] | 0

Could you now look at the following compound, please?
Ask: Give mortality for the following compound: COc1cc(/C=C/C(=O)N2CCN(CC(=O)NC(C)C)CC2)cc(OC)c1O [compound 69]
Result: 0

----------
Method: approximate acute toxicity (method of MILLER and TAINTER)
Applied conditions: in vivo, po
Reported endpoint: LD50 (mg/kg)
Give your result in mg/kg as a bare value.

Known LD50 results, listed for orientation:
Smiles text | Unit spec | LD50
COc1cc(CCC(=O)N2CCN(CC(=O)NC(C)C)CC2)cc(OC)c1OC | mg/kg | 2000
COc1cc(/C=C/C(=O)N2CCN(CC(=O)NC(C)C)CC2)cc(OC)c1O | mg/kg | 2000
COc1cc(/C=C/C(=O)N2CCN(CC(=O)N3CCCCC3)CC2)cc(OC)c1OC | mg/kg | 2250

Ask: Give LD50 for the following molecule: COc1cc(/C=C/C(=O)N2CCN(CC(=O)O)CC2)cc(OC)c1OC
Result: 1000
